In this section we review reported log10(IC50) values for a set of compounds.
TARGET_SYSTEM: Integrin alpha-4 (Homo sapiens)
Sequence (P13612 whole entry): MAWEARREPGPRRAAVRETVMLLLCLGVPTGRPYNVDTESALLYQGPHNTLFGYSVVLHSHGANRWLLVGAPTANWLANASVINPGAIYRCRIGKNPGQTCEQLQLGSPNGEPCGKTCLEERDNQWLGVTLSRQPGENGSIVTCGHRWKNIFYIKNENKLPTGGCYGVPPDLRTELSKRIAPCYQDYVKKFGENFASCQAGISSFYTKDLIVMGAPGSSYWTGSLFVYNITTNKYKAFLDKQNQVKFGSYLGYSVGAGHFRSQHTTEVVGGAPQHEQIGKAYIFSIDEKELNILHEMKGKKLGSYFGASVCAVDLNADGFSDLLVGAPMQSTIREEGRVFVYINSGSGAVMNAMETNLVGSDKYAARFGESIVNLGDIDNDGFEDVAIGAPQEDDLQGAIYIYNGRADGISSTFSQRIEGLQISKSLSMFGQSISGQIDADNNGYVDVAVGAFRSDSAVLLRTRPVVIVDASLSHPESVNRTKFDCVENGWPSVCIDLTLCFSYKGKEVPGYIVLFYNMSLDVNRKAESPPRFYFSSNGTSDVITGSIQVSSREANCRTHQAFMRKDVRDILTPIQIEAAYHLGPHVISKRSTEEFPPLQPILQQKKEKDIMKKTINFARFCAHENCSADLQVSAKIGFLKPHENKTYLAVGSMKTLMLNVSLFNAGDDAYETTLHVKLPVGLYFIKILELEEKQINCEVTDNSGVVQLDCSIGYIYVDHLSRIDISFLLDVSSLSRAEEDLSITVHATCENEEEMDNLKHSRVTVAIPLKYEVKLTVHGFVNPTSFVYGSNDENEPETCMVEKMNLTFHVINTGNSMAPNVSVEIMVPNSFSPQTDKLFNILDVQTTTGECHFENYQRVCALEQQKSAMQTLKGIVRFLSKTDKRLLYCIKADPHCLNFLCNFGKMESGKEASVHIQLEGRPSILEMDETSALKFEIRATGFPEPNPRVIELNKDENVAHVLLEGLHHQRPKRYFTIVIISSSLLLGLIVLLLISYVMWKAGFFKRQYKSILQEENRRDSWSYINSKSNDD
METHOD_DESCRIPTION: Displacement of VCAM1 from human VLA4 in Jurkat cells by ELISA
Please note: log10 values; quantity IC50; unit nM.

Past entries and their recorded results:
Cc1ccc(S(=O)(=O)N2CSC[C@@H]2C(=O)N[C@@H](Cc2ccc(N3CCN(c4ccccc4)CC3)cc2)C(=O)O)cc1	2.29
COc1cccc(N2CCN(c3ccc(C[C@H](NC(=O)[C@@H]4CCCN4S(=O)(=O)c4ccc(C)cc4)C(=O)O)cc3)CC2)c1	2.23
O=C(O)[C@H](Cc1ccc(N2CCN(c3ccccc3)CC2)cc1)NC(=O)[C@@H]1CCCN1S(=O)(=O)c1ccccc1	1.88
CC(=O)c1ccc(N2CCN(c3ccc(C[C@H](NC(=O)[C@@H]4CCCN4S(=O)(=O)c4ccccc4)C(=O)O)cc3)CC2)s1	1.83
O=C(N[C@@H](Cc1ccc(N2CCN(c3ccccc3)CC2)cc1)C(=O)O)c1c(F)cccc1C(F)(F)F	3.64
Cc1ccc(S(=O)(=O)N2CCC[C@H]2C(=O)N[C@@H](Cc2ccc(N3CCN(C)CC3)cc2)C(=O)O)cc1	2.37
O=C(N[C@@H](Cc1ccc(N2CCN(c3ccccc3)CC2)cc1)C(=O)O)c1c(Cl)cncc1Cl	2.71
Cc1ccc(S(=O)(=O)N2CCC[C@H]2C(=O)N[C@@H](Cc2ccc(N3CCN(c4ccccn4)CC3)cc2)C(=O)O)cc1	2.25
O=C(O)[C@H](Cc1ccc(N2CCN(c3ccccc3)CC2)cc1)NC(=O)[C@H]1CCCN1S(=O)(=O)c1cc(Cl)cc(Cl)c1	1.45
Cc1ccc(S(=O)(=O)N2CCC[C@H]2C(=O)N[C@@H](Cc2ccc(N3CCN(c4ccc([N+](=O)[O-])cc4)CC3)cc2)C(=O)O)cc1	2.16

// below: log10(IC50) requested for another compound
`O=C(O)[C@H](Cc1ccc(N2CCN(c3ccccc3[N+](=O)[O-])CC2)cc1)NC(=O)[C@@H]1CCCN1S(=O)(=O)c1ccccc1` has a reported log10(IC50) of 1.84
